Assay: total protein half-life in vivo (active degradation + dilution); higher = more stable protein
Settings: E. coli NCM3722 delta-lon; growth: N-lim chemostat; doubling time 6 h
quantity_measured: total protein half-life in vivo

Study these solved cases before continuing.
* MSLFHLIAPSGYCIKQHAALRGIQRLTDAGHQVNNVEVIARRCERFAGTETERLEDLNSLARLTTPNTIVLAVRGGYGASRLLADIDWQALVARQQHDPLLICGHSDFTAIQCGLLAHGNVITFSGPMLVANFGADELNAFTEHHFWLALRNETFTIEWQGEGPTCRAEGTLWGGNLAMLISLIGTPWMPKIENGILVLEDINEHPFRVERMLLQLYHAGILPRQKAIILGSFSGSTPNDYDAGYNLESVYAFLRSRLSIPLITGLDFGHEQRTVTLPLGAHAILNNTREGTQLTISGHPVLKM | 4.07 h
* MKTIHDIRRSNARKLRDGVGGNSSFATMIDREPTQTSRFMGDGATKNIGDSMARHIEKCFDLPVGWLDQEHQTTNITKKPDVSITNKQITLVPVISWVQAGAWKEVGYSEVDLSTAETYPCPVPCGEMTYILRVIGDSMIDEYRPGDMIFVDPEVPACHGDDVIALMHDTGETTFKRLIEDGTQRYLKALNPNWPEPYIKINGNCSIIGTVIFSGKPRRYKIKA | 4.89 h
* MKKTLLAAGAVLALSSSFTVNAAENDKPQYLSDWWHQSVNVVGSYHTRFGPQIRNDTYLEYEAFAKKDWFDFYGYADAPVFFGGNSDAKGIWNHGSPLFMEIEPRFSIDKLTNTDLSFGPFKEWYFANNYIYDMGRNKDGRQSTWYMGLGTDIDTGLPMSLSMNVYAKYQWQNYGAANENEWDGYRFKIKYFVPITDLWGGQLSYIGFTNFDWGSDLGDDSGNAINGIKTRTNNSIASSHILALNYDHWHYSVVARYWHDGGQWNDDAELNFGNGNFNVRSTGWGGYLVVGYNF [P0A927] | > 8 h

Query :: Please report the measured total protein half-life in vivo for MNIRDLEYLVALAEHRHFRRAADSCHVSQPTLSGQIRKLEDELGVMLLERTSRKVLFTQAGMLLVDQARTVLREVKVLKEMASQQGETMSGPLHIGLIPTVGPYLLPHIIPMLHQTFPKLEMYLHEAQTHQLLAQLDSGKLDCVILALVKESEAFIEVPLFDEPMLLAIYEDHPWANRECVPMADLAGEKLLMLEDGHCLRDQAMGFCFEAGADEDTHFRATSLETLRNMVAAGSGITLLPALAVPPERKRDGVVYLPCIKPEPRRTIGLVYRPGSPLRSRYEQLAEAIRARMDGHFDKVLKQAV [P0ACQ4]
Result :: 4.56 h

Query :: Please report the measured total protein half-life in vivo for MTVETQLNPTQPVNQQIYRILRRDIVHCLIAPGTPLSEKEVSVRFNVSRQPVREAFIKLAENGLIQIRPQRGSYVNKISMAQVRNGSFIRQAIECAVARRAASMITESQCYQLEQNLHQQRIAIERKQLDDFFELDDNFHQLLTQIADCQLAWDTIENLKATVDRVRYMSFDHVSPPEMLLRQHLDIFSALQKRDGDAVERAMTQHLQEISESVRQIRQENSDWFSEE [P0ACM2]
Result :: 5.9 h

----------
List of total protein half-life in vivo values.
Test: total protein half-life in vivo (active degradation + dilution); higher = more stable protein
Details: E. coli NCM3722 delta-hslV; growth: N-lim chemostat; doubling time 6 h
Write the answer as a number in h, unit excluded.

* MLKKFRGMFSNDLSIDLGTANTLIYVKGQGIVLNEPSVVAIRQDRAGSPKSVAAVGHDAKQMLGRTPGNIAAIRPMKDGVIADFFVTEKMLQHFIKQVHSNSFMRPSPRVLVCVPVGATQVERRAIRESAQGAGAREVFLIEEPMAAAIGAGLPVSEATGSMVVDIGGGTTEVAVISLNGVVYSSSVRIGGDRFDEAIINYVRRNYGSLIGEATAERIKHEIGSAYPGDEVREIEVRGRNLAEGVPRGFTLNSNEILEALQEPLTGIVSAVMVALEQCPPELASDISERGMVLTGGGALLRNLDRLLMEETGIPVVVAEDPLTCVARGGGKALEMIDMHGGDLFSEE [P0A9X4] | 6.55

Moving on to another sequence below.
Query :: Please report the measured total protein half-life in vivo for MTKYALVGDVGGTNARLALCDIASGEISQAKTYSGLDYPSLEAVIRVYLEEHKVEVKDGCIAIACPITGDWVAMTNHTWAFSIAEMKKNLGFSHLEIINDFTAVSMAIPMLKKEHLIQFGGAEPVEGKPIAVYGAGTGLGVAHLVHVDKRWVSLPGEGGHVDFAPNSEEEAIILEILRAEIGHVSAERVLSGPGLVNLYRAIVKADNRLPENLKPKDITERALADSCTDCRRALSLFCVIMGRFGGNLALNLGTFGGVFIAGGIVPRFLEFFKASGFRAAFEDKGRFKEYVHDIPVYLIVHDNPGLLGSGAHLRQTLGHIL [P0A6V8]
Result :: 4.8

----------
Assay: total protein half-life in vivo (active degradation + dilution); higher = more stable protein
Conditions: wild type E. coli NCM3722; growth: C-lim chemostat; doubling time 12 h
quantity_measured: total protein half-life in vivo
Write down the value, and be sure its unit follows.

Query :: Please report the measured total protein half-life in vivo for MIKSALLVLEDGTQFHGRAIGATGSAVGEVVFNTSMTGYQEILTDPSYSRQIVTLTYPHIGNVGTNDADEESSQVHAQGLVIRDLPLIASNFRNTEDLSSYLKRHNIVAIADIDTRKLTRLLREKGAQNGCIIAGDNPDAALALEKARAFPGLNGMDLAKEVTTAEAYSWTQGSWTLTGGLPEAKKEDELPFHVVAYDFGAKRNILRMLVDRGCRLTIVPAQTSAEDVLKMNPDGIFLSNGPGDPAPCDYAITAIQKFLETDIPVFGICLGHQLLALASGAKTVKMKFGHHGGNHPVKDVEKNVVMITAQNHGFAVDEATLPANLRVTHKSLFDGTLQGIHRTDKPAFSFQGHPEASPGPHDAAPLFDHFIELIEQYRKTAK [P0A6F1]
Result :: 9.87 h

----------
Assay: total protein half-life in vivo (active degradation + dilution); higher = more stable protein
Conditions: E. coli NCM3722 delta-hslV; growth: N-lim chemostat; doubling time 6 h
List of total protein half-life in vivo values.
Write the answer as a number in h, unit excluded.

* MQNITQSWFVQGMIKATTDAWLKGWDERNGGNLTLRLDDADIAPYHDNFHQQPRYIPLSQPMPLLANTPFIVTGSGKFFRNVQLDPAANLGIVKVDSDGAGYHILWGLTNEAVPTSELPAHFLSHCERIKATNGKDRVIMHCHATNLIALTYVLENDTAVFTRQLWEGSTECLVVFPDGVGILPWMVPGTDEIGQATAQEMQKHSLVLWPFHGVFGSGPTLDETFGLIDTAEKSAQVLVKVYSMGGMKQTISREELIALGKRFGVTPLASALAL | 2.77
* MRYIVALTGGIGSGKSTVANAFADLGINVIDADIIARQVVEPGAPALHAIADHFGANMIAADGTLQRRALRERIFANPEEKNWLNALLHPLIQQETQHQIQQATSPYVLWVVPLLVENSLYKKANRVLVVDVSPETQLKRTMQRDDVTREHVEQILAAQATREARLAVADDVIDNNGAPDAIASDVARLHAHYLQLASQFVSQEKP [P0A6I9] | 4.04

Moving on to another sequence below.
Query :: Please report the measured total protein half-life in vivo for `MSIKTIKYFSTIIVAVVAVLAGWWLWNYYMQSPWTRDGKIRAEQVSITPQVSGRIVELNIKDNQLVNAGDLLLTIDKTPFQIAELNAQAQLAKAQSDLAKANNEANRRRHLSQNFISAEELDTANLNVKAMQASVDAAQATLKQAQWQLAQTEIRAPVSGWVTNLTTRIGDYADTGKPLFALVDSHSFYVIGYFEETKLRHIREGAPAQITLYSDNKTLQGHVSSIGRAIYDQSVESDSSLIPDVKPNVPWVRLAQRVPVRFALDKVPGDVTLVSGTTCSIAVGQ`
Result :: 6.39

----------
List of total protein half-life in vivo values.
Test: total protein half-life in vivo (active degradation + dilution); higher = more stable protein
Details: E. coli NCM3722 delta-smpB; growth: N-lim chemostat; doubling time 6 h
Write the answer as a number in h, unit excluded.

• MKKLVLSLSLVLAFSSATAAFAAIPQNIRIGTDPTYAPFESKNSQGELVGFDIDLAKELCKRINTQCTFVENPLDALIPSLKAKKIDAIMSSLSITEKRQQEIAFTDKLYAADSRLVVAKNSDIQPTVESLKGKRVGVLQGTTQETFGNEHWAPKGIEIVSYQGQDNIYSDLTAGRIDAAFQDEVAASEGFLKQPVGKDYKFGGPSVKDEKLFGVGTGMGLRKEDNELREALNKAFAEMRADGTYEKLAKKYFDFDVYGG [P0AEU0] = 5.88

Query :: Please report the measured total protein half-life in vivo for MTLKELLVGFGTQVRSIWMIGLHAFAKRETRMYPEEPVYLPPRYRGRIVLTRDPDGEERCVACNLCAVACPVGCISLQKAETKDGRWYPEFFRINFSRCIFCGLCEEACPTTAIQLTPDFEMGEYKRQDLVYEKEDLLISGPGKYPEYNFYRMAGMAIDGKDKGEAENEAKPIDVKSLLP [P0AFD6]
Result :: 6.35

Query :: Please report the measured total protein half-life in vivo for `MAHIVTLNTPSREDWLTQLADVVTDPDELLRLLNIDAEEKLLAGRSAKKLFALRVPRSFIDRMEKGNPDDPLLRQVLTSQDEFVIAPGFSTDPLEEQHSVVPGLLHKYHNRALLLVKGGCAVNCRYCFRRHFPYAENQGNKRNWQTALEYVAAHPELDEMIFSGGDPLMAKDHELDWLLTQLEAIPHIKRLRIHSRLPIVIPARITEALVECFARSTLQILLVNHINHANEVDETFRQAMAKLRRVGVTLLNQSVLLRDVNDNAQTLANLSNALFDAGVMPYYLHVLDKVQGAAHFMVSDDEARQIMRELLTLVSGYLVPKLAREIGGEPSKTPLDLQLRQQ`
Result :: 1.33

Query :: Please report the measured total protein half-life in vivo for METFNSLFMVSPLLLGVLFFVAMLAGFIDSIAGGGGLLTIPALMAAGMSPANALATNKLQACGGSISATIYFIRRKVVSLSDQKLNIAMTFVGSMSGALLVQYVQADVLRQILPILVICIGLYFLLMPKLGEEDRQRRMYGLPFALIAGGCVGFYDGFFGPAAGSFYALAFVTLCGFNLAKATAHAKLLNATSNIGGLLLFILGGKVIWATGFVMLVGQFLGARMGSRLVLSKGQKLIRPMIVIVSAVMSAKLLYDSHGQEILHWLGMN [P0AD30]
Result :: 6.13

Query :: Please report the measured total protein half-life in vivo for `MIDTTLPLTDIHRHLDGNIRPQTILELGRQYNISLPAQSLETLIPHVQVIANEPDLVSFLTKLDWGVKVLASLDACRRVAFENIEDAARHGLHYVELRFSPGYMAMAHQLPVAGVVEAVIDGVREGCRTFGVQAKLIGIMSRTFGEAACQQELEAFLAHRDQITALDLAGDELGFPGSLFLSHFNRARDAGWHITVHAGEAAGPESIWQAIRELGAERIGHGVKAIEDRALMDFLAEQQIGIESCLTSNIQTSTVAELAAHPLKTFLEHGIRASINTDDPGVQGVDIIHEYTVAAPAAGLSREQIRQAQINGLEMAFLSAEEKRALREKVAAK`
Result :: 4.49

// data source = the supplement of paper PMC11246515
